- target system: UniProt Q14432
pIC50: −log10 of the molar value.

{"columns": ["compound", "pIC50"],
 "data": [
  ["C=C(C)Cn1c(SCC(=O)c2cccs2)nc2sc3c(c2c1=O)CCCC3", "< 4.30"]
]}

---

- target system: PDE4D2 (Homo sapiens, UniProt Q08499)
- Construct: purchased BPS Biosciences (San Diego, Calif.)
- assay text: In vitro PDE assay
- Assay type: biochemical
- condition parameters: Table 9A
- Experimental: In vitro PDE profiling and dose-response assays were performed by BPS Biosciences (San Diego, Calif.). Kinetic Mechanism of inhibition studies were conducted by Millipore (St. Louis, Mo.). In brief, the PDE assay measures fluorescent polarization of FAM-AMP as FAM-cAMP is converted to FAM-AMP by PDE), the binding agent. […]
experimental endpoint: log10(IC50) (log10 of the value in µM)

{"columns": ["compound", "target system", "log10(IC50)"],
 "data": [
  ["C=CCn1c(SCC(=O)N2CCN(C)CC2)nc2sc3c(c2c1=O)CCCC3", "PDE4D2 (Homo sapiens, UniProt Q08499)", 0.23],
  ["C=C(C)Cn1c(SCC(=O)c2ccncc2)nc2sc3c(c2c1=O)CCCC3", "PDE4D2 (Homo sapiens, UniProt Q08499)", 1.20],
  ["C=C(C)Cn1c(SCC(=O)N2CCOCC2)nc2sc3c(c2c1=O)CCCC3", "PDE4D2 (Homo sapiens, UniProt Q08499)", 0.51],
  ["O=C(CSc1nc2sc3c(c2c(=O)n1-c1ccccc1)CCCC3)c1cccs1", "PDE4D2 (Homo sapiens, UniProt Q08499)", 1.65],
  ["C=C(C)Cn1c(SCC(=O)c2ccccc2)nc2sc3c(c2c1=O)CCCC3", "PDE4D2 (Homo sapiens, UniProt Q08499)", 1.15],
  ["C=CCn1c(SCC(=O)N2CCCC[C@H]2C)nc2sc3c(c2c1=O)CCCC3", "PDE4D2 (Homo sapiens, UniProt Q08499)", 0.88],
  ["C=C(C)Cn1c(SCC(=O)c2nccs2)nc2sc3c(c2c1=O)CCCC3", "PDE4D2 (Homo sapiens, UniProt Q08499)", 0.81]
]}

---

- target system: PDE2A (Homo sapiens)
pIC50: −log10 of the molar value.

{"columns": ["compound", "pIC50"],
 "data": [
  ["C=C(C)Cn1c(SCC(=O)c2cccs2)nc2sc3c(c2c1=O)CCCC3 [Eggmanone]", "< 4.30"]
]}

---

IC50 by entry:
- target system: PDE4D3 (Homo sapiens, UniProt Q08499)
- Construct: purchased BPS Biosciences (San Diego, Calif.); kinetic studies by Millipore (St. Louis, Mo.)
- Sequence (Q08499 1-673 isoform Q08499-2): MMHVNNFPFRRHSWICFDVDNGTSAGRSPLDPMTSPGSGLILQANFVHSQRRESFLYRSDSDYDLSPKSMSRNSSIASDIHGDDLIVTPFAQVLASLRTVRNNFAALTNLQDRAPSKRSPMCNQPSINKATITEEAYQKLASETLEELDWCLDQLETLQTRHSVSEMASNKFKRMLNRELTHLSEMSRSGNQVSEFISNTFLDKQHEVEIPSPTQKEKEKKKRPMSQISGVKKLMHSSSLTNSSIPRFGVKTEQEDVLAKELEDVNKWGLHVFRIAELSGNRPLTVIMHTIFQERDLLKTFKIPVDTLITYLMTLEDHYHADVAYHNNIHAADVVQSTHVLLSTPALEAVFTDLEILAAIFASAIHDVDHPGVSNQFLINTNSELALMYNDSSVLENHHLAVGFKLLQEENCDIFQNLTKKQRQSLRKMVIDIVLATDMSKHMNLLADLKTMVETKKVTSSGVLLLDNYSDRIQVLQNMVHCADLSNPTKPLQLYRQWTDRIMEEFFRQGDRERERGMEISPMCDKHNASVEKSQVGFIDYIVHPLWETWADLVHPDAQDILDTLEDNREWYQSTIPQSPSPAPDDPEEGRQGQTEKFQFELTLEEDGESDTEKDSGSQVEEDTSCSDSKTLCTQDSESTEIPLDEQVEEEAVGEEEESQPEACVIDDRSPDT
- assay text: In vitro PDE assay
- Type: biochemical
- condition parameters: Table 9B
- Protocol: In vitro PDE profiling and dose-response assays were performed by BPS Biosciences (San Diego, Calif.). Kinetic Mechanism of inhibition studies were conducted by Millipore (St. Louis, Mo.). In brief, the PDE assay measures fluorescent polarization of FAM-AMP as FAM-cAMP is converted to FAM-AMP by PDE), the binding agent. […]
experimental endpoint: IC50 (µM)

{"columns": ["compound", "experimental endpoint", "measurement qualifier", "measured"],
 "data": [
  ["CCn1c(SCC(=O)c2ccc(Cl)cc2)nc2sc3c(c2c1=O)CCC3", "IC50", "=", 4.1],
  ["C=CCn1c(SCC(=O)c2ccc(OC)cc2)nc2sc3c(c2c1=O)CCCC3", "IC50", ">", 100],
  ["C=CCn1c(SCC(=O)c2ccccc2)nc2sc(CC)cc2c1=O", "IC50", "=", 6],
  ["CCCCn1c(SCC(=O)c2ccccc2)nc2sc3c(c2c1=O)CCC3", "IC50", "=", 20],
  ["C=CCn1c(SCC(=O)c2ccccc2)nc2scc(-c3ccccc3)c2c1=O", "IC50", "=", 14]
]}

---

- target system: Hedgehog signaling (TM3-Gli-Luc)
- assay text: TM3-Gli-Luc luciferase reporter assay stimulated with 20 nM SAG
- Assay type: cell-based
- condition parameters: TM3-Gli-Luc reporter line stimulated with 20 nM SAG; mean ± SEM; Table 14; read-out: TM3-Gli-Luc EC50
pEC50: −log10 of the molar value.
Classify by measured pEC50: T if it is equal to or exceeds 6, F if it is smaller.

{"columns": ["molecule", "label"],
 "data": [
  ["CN(C)c1ccccc1CN1CCCN(Cc2ccccc2N(C)C)C1c1ccncc1 [GANT-61, reference compound]", "F"],
  ["Cc1c(C(=O)Nc2ccc(N3C[C@@H](C)O[C@@H](C)C3)nc2)cccc1-c1ccc(OC(F)(F)F)cc1 [Sonidegib, reference compound]", "T"],
  ["O=C(CSc1nc2sc3c(c2c(=O)n1C1CC1)CCCC3)c1cccs1", "F"],
  ["O=C(CSc1nc2sccc2c(=O)n1C1CC1)c1ccccc1 [Formula 19c]", "T"],
  ["C=C(C)Cn1c(SCC(=O)N2CCCCC2C)nc2sc3c(c2c1=O)CCCC3 (stereo not shown)", "F"],
  ["C=C(C)Cn1c(SCC(=O)c2ccccc2)nc2sc3c(c2c1=O)CCCC3", "F"]
]}

---

- Tested on: Hedgehog signaling (Gli-Luc reporter)
- assay text: Hh Gli-Luciferase reporter assay in Shh-Light2 cells
- Assay type: cell-based, mouse
- condition parameters: Mus musculus, Shh Light2
- Experimental: For Hh signaling assays, Shh-Light2 cells stably transfected with Gli-Luciferase reporter construct were used along with Shh-conditioned media, as previously described^7. Alternatively, 3 μM purmorphamine or 20 nM Smoothened agonist (SAG) (Santa Cruz Biotechnology, Santa Cruz, Calif.) was used to induce Hh signaling. […] The results were normalized to cell titer, as determined using Cell Titer-Glo luminescence assay (Promega).
pIC50: −log10 of the molar value.
Reported pIC50 values are given for each entry in this list.
experimental endpoint: pIC50

{"columns": ["compound", "measured"],
 "data": [
  ["C=C(C)Cn1c(SCC(=O)c2cccs2)nc2sc3c(c2c1=O)CCCC3", 5.82],
  ["C=C(C)Cn1c(SCC(=O)c2ccncc2)nc2sc3c(c2c1=O)CCCC3", 5.00],
  ["C=CCn1c(SCC(=O)N2CCN(C)CC2)nc2sc3c(c2c1=O)CCCC3", 5.00],
  ["C=C(C)Cn1c(SCC(=O)c2ccccn2)nc2sc3c(c2c1=O)CCCC3", 4.82]
]}

---

- Test system: Gli1 mRNA
- assay text: Hh % Inh.: SAG-induced Gli1 expression in C3H10T½ cells (qPCR)
- Assay type: cell-based
- condition parameters: Mus musculus, C3H 10T1/2; 10 pM [sic]; SAG-induced (100 nM), 24 hours; read-out: C3H10T1/2 qPCR, Gh1 mRNA % Inh., 10 pM

{"columns": ["compound", "inhibition at 10 µM (%)"],
 "data": [
  ["C=C(C)Cn1c(SCC(=O)c2nccs2)nc2sc3c(c2c1=O)CCCC3", 42.8],
  ["CCn1c(SCC(=O)c2cccs2)nc2sc3c(c2c1=O)CCCC3", 96.1],
  ["C=C(C)Cn1c(SCC(=O)c2cccs2)nc2cnccc2c1=O", 24.2],
  ["CCCn1c(SCC(=O)c2cccs2)nc2sc3c(c2c1=O)CCCC3", 101],
  ["CC(C)(O)Cn1c(SCC(=O)c2cccs2)nc2sc3c(c2c1=O)CCCC3", 14.8],
  ["O=C(CSc1nc2sc3c(c2c(=O)n1C1CC1)CCCC3)c1cccs1", 89.1],
  ["C=C(C)Cn1c(SC)nc2sc3c(c2c1=O)CCCC3", 83.9],
  ["C=C(C)Cn1c(SCC(=O)c2cccs2)nc2sccc2c1=O", 50.4],
  ["C=C(C)Cn1c(SCC(=O)N2CCCCC2)nc2sc3c(c2c1=O)CCCC3", 98.6]
]}

---

- target system: PDE4D (Homo sapiens, UniProt Q08499)
- Sequence (Q08499 1-673 isoform Q08499-2): as above
- assay text: PDE4 inhibition assay (PDE4D IC50)
- Assay type: biochemical
- condition parameters: Table 8; read-out: PDE4 Inhibition Assay (IC50)
experimental endpoint: IC50 (µM)

{"columns": ["compound", "measurement qualifier", "measured"],
 "data": [
  ["C=C(C)Cn1c(SCC(=O)N2Cc3ccccc3C2)nc2sc3c(c2c1=O)CCCC3", "=", 46],
  ["C=C(C)Cn1c(SCC(=O)c2ccncc2)nc2sc3c(c2c1=O)CCCC3", "=", 16],
  ["C=C(C)Cn1c(SCC(=O)c2cccs2)nc2sc3c(c2c1=O)CCCC3", "=", 0.893],
  ["C=CCn1c(SCC(=O)c2ccncc2)nc2sc3c(c2c1=O)CCCC3", "=", 8.2],
  ["C=C(C)Cn1c(SCC(=O)N2CCCC[C@H]2C)nc2sc3c(c2c1=O)CCCC3", "=", 1.2],
  ["C=CCn1c(SCC(=O)N2CCCC[C@H]2C)nc2sc3c(c2c1=O)CCCC3", "=", 7.6],
  ["C=CCn1c(SCC(=O)N2CCOCC2)nc2sc3c(c2c1=O)CCCC3", ">", 100],
  ["C=CCn1c(SCC(=O)N2Cc3ccccc3C2)nc2sc3c(c2c1=O)CCCC3", ">", 100],
  ["C=C(C)Cn1c(SCC(=O)c2ccccc2)nc2sc3c(c2c1=O)CCCC3", "=", 1.27],
  ["C=C(C)Cn1c(SCC(=O)c2nccs2)nc2sc3c(c2c1=O)CCCC3", "=", 6.4],
  ["C=CCn1c(SCC(=O)N2CCN(C)CC2)nc2sc3c(c2c1=O)CCCC3", "=", 2.08],
  ["C=CCn1c(SCC(=O)c2cccs2)nc2sc3c(c2c1=O)CCCC3", ">", 100],
  ["C=C(C)Cn1c(SCC(=O)c2ccccn2)nc2sc3c(c2c1=O)CCCC3", "=", 23],
  ["C=C(C)Cn1c(SCC(=O)N2CCN(C)CC2)nc2sc3c(c2c1=O)CCCC3", "=", 8.5],
  ["C=C(C)Cn1c(SCC(=O)N2CCOCC2)nc2sc3c(c2c1=O)CCCC3", "=", 3.9],
  ["C=CCn1c(SCC(=O)c2nccs2)nc2sc3c(c2c1=O)CCCC3", "=", 27],
  ["C=C(C)Cn1c(SCC(=O)c2ccc(-c3ccccc3)cc2)nc2sc3c(c2c1=O)CCCC3", ">", 100],
  ["C=CCn1c(SCC(=O)c2ccccn2)nc2sc3c(c2c1=O)CCCC3", "=", 25]
]}
